Where do these numbers come from? They come from the supplement of paper PMC12455559.

assay: PET hydrolysis, aromatic products released after 48 h (umol product/mg enzyme); higher = more PET depolymerization activity; settings: substrate: cryPow; 40 °C; pH 7.5
quantity_measured: PET hydrolysis
Answer with a number only.

Look over these answered cases.
query_sequence: AQTSQVVTANPHQRGPDPTPETVRAPQGTFAFSTYSVPASVTGFGQGTIYYPDDTTQGTFAGVAISPGYTGPEASVAWLGPRLASRGFVVITITTNSRYDQPTSRGKQLLAALDYLTKQSPTEVRQRLDATRLGVMGHSMGGGGALYAAYKRPSLKAAVPLAPWNLIKNWSGIRVPTLVVAGTADKTASAGAHSLPFYSSMTGARERAFADVTGADHLTFVREDPVIGALAVSWLKRFLDDDTRYAPFITEPVGLSRFLCSCPYAG [DP007]
PET hydrolysis: 16
--
query_sequence: DEIGQAPTAGNITGNGSFTTTSESISSLVSGFGGGRVYYPTTAGKYPVVAISPGFTATWSSLSWIGPRLSSWGFVVVGIETNSIYDQPASRGSQLLAALNWAVNSSSSAVRARVDGSRRGVAGHSMGGGGTLEALAADTTGLVKAGVPIAPWNSDKTWNNVSEPVMIVGGQSDTVAPVASHSIPFYNTLAGPKGYVELTGASHFFPQSTNATLSRALVAWFKRWLNQDSRFTPYTCGFSGLAVSDFRSNAC [ESM090]
PET hydrolysis: 65

Problem: Record request: PET hydrolysis value, item NPYERGPAPTTSSIEASRGSFATSTTTVSRLAVSGFGGGTIYYPTSTASGTFGAVSIAPGFTATQSSMAWLGPRLASQGFVVFTIDTITTSDQPDSRGRQLLSSLDYLTQQSSVRSRIDSSRLGVVGHSMGGGGTLEAARSRPSLQAAVPLTGWNLTKSWSTVRVPTLVVGAQADTVAPVASHSIPFYTSLPSSLDKAYLELRGASHFAPNSANTTIAKYTLSWLKRFIDDDTRYEQFLCPIPGTSTTISDYRGNCPHAG [ESM140]
Result: 33
